// pKd lookup, one value per entry
Target: T1, Extracellular domain (ECD) of the canine IL-4 receptor alpha-AviTag-His Tag (canine)
T1 construct: expressed in CHO cells; also called canine IL-4RA; canine IL4Ra
T1 chain: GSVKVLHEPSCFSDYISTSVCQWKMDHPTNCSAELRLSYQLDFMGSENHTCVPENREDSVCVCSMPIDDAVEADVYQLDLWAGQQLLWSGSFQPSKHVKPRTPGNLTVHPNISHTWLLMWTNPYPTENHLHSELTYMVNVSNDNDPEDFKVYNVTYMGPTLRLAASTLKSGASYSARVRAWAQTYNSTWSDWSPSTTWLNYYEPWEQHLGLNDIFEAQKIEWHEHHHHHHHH
Assay: SPR, IgG captured via anti-dog Fc;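 also: biacore T200 SPR with antibodies captured on CM5 chip bearing anti-dog Fc, 120 s association then 600 s dissociation, double-referenced sensorgrams fitted with 1:1 binding model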
pKd: −log10 of the molar value.

# BINDER, pKd
data = [
    ("FJP05A03-H + FJP10A09-L (antibody, V domains shown) VH: EVQLVESGGDLVKPGGSLRLSCVASGLPFRDYAMAWVRQAPGKGLQWLSLISGSGGKTYYADAVKGRFTISRDNAKNTLYLQMNSLRAEDTAVYYCAVDRLTKTIRPQYYGLWVWGQGTLVTVSS VL: DIVMTQTPLSLSVSPGETASISCRSSQSLTYSIGYNYLDWYMQKPGQSPQGLIYLGSKRASGVSDRFSGSGSGADFTLKISRVEADDAGVYYCMQGLHSPLSFGQGTKLEIKR", 9.70),
    ("FJP05A03-H + GFmix_THS-L (antibody, V domains shown) VH: EVQLVESGGDLVKPGGSLRLSCVASGLPFRDYAMAWVRQAPGKGLQWLSLISGSGGKTYYADAVKGRFTISRDNAKNTLYLQMNSLRAEDTAVYYCAVDRLTKTIRPQYYGLWVWGQGTLVTVSS VL: DIVMTQTPLSLSVSPGETASISCRSSQSLTYSIGYNYLDWYMQKPGQSPQGLIYLGSKRASGVSDRFSGSGSGADFTLKISRVEADDAGVYYCMQGLHSPLGFGQGTKLEIKR", 9.77),
    ("GFmix_PTH-H + FJP10A09-L (antibody, V domains shown) VH: EVQLVESGGDLVKPGGSLRLSCVASGFPFRDYAMTWVRQAPGKGLQWLSLISGSGGKTYYADAVKGRFTISRDNAKNTLYLQMNSLRAEDTAVYYCAVDRLTKTIRPQYYGLWHWGQGTLVTVSS VL: DIVMTQTPLSLSVSPGETASISCRSSQSLTYSIGYNYLDWYMQKPGQSPQGLIYLGSKRASGVSDRFSGSGSGADFTLKISRVEADDAGVYYCMQGLHSPLSFGQGTKLEIKR", 9.78),
    ("FJP05A03-H + GFmix3_KTHS-L (antibody, V domains shown) VH: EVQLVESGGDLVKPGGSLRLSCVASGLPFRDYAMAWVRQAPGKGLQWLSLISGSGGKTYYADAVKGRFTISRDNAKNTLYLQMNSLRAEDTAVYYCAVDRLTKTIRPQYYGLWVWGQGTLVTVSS VL: DIVMTQTPLSLSVSPGETASISCRSSKSLTYSIGYNYLDWYMQKPGQSPQGLIYLGSKRASGVSDRFSGSGSGADFTLKISRVEADDAGVYYCMQGLHSPLSFGQGTKLEIKR", 9.73),
    ("21188-H + 21188-L (antibody, V domains shown) VH: EVQLVESGGDLVKPGGSLRLSCVASGFTFRDYAMTWVRQAPGKGLQWLSLISGSGGKTYYADAVKGRFTISRDNAKNTLYLQMNSLRAEDTAVYYCAVDRLTKTIRPQYYGLWHWGQGTLVTVSS VL: DIVMTQTPLSLSVSPGETASISCRSSQSLTYSIGYNYLDWYMQKPGQSPQGLIYLGSKRASGVSDRFSGSGSGADFTLKISRVEADDAGVYYCMQGLQSPLGFGQGTKLEIKR", 9.61),
    ("TB640_005 (antibody, V domains shown, caninized IgG; also called TB640_005-H + TB640_005-L) VH: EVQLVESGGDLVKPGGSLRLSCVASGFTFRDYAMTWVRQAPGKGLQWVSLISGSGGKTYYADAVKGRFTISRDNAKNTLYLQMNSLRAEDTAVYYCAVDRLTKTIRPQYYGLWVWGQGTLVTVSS VL: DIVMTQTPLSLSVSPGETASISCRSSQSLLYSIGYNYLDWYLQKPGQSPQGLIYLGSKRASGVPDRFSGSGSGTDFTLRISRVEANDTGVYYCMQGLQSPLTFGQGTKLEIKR", 8.64),
]
